Biological target: CHD5 PHD2 finger (413-468), GST tag cleaved (UniProt Q8TDI0 413-468)
Sequence (Q8TDI0 413-468): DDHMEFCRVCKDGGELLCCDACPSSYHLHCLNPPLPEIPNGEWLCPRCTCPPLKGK
Assay: SPR
Ends that are not written are not given here.

binder	Kd (µM)
ARTKQTARKST-biotin (peptide, UniProt P68431 2-12, looked up) [Histone H3 peptide (1-11) with C-terminal biotin]	34.6
